- test_target: T1, EsCas13d, nuclease-dead (Eubacterium siraeum, UniProt B0MS50, R295A;H300A;R849A;H854A)
- T1 sequence: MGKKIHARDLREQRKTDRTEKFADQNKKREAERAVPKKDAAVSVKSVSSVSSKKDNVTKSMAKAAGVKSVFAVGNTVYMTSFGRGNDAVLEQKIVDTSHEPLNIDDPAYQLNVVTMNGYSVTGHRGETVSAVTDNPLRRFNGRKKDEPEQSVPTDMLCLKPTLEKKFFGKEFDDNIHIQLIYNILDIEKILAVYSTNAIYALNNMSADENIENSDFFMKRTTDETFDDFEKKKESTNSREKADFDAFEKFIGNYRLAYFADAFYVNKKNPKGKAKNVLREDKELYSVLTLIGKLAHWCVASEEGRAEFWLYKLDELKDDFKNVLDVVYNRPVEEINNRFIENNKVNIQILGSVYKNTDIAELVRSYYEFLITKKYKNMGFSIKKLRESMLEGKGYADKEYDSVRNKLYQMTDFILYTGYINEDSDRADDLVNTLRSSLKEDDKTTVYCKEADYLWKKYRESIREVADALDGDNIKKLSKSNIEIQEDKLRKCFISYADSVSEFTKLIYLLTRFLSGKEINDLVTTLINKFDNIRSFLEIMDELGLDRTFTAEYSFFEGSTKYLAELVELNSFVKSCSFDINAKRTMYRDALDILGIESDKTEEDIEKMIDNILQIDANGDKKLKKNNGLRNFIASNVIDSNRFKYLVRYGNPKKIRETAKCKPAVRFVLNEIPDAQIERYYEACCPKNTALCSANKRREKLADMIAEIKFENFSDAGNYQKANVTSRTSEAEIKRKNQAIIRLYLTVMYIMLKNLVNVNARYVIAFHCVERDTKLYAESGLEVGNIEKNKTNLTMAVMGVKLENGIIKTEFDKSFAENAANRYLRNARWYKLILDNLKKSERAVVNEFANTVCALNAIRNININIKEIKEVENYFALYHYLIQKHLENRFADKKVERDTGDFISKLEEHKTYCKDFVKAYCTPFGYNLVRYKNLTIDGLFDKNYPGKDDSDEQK
- protocol: crRNA (strand 1, pre-loaded); Mg2+; 40 mM Tris-HCl pH 7.5, 150 mM NaCl, 6 mM MgCl2, 1 mM DTT, 0.1% Tween-20, 0.2 mg/ml BSA; 25 C; 10 min per concentration, then washed
- condition_context: tags: His6-TwinStrep-SUMO cleaved; N-terminal SNAP kept (SNAP-Surface 488); label: 3' end held by stalled T7 RNA polymerase
reported_endpoint: Kd

binder	Kd
target 3 insU 3' of 11,insC 3' of 3 (mixed) RNA 1: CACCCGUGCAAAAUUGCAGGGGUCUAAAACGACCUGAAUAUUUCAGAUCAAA RNA 2: GGGAAUGGAUCCACAUCUACGAAUUCGUUUUUGAUCUGAAAUUAUUCAGGCUCUGCAGAUCGGAAGAGCACACGU	0.058 µM

Now consider a different binder.
Data request, read-out Kd, for target 1 MT 5'PFS GUC 3'PFS CCA (mixed) RNA 1: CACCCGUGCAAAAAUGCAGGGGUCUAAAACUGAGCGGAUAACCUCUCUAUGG RNA 2: GGGAAUGGAUCCACAUCUACGAAUUCGUCCCAUAGAGAGGUUAUCCGCUCACCAAGAUCGGAAGAGCACACGU
~0.018 µM
